Record: IC50 reported on Enkephalinase (Rattus norvegicus, UniProt P07861).
Sequence (P07861 whole entry): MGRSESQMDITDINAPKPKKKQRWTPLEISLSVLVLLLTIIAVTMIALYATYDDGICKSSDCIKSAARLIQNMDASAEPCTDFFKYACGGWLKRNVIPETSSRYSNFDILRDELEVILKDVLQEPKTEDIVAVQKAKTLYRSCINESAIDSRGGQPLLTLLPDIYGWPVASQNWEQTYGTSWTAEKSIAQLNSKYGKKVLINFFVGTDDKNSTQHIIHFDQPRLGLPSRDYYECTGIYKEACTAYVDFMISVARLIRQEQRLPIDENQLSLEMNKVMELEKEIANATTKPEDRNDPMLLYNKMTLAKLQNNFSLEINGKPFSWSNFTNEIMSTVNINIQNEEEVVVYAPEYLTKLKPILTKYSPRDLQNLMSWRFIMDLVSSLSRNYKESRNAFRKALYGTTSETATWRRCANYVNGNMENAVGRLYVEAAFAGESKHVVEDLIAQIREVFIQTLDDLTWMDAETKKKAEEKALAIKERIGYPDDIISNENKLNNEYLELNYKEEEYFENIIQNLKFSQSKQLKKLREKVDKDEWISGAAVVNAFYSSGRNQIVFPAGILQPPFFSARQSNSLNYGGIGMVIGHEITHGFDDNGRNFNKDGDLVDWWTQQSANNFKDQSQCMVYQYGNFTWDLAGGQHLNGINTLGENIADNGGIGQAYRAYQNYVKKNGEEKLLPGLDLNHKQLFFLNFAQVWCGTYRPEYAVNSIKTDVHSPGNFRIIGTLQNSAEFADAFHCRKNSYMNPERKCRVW
Give bare numbers, in µM.

Worked examples follow.
# Compound, Reported Measurement
rows = [
    ("O=C(CCS)Nc1ccccc1 [N--phenyl-3-mercapto-propanamide, N-phenyl-3-mercapto-propanamide]", 40),
    ("O=C(CS)Nc1nccs1 [N--(2-thiazolyl)-2-mercapto-acetamide, N-(2-thiazolyl)-2-mercapto-acetamide]", 30),
    ("O=C(CS)Nc1ccc(Cl)cc1 [N--(4-chlorophenyl)-2-mercapto-acetamide, N-(4-chlorophenyl)-2-mercapto-acetamide]", 5),
    ("CC(=O)SCC(=O)Nc1nccs1", 130),
    ("CC(=O)SCC(=O)Nc1ccc(Cl)cc1", 6),
]

Param item = O=C(CS)Nc1ccccc1 [N--phenyl-2-mercapto-acetamide, N-phenyl-2-mercapto-acetamide] ; retrieve measured IC50.
3
